The entries below are paired with their reported inhibition at 30 µM.
Molecular target: HIV-1 protease (Human immunodeficiency virus type 1 group M subtype B)
Experiment: biochemical
Settings: read-out: HIV-1 Protease % Inhib, dose 30.000 uM
Answer format reminder: number followed by unit.

Worked set:
INSERT INTO assay_data (compound, observationtype, endpointresult) VALUES
  ('CCc1ccc(S(=O)(=O)Nc2cccc(C(c3c(O)c4c(oc3=O)CCCCCC4)C3CC3)c2)cc1 (stereo not drawn)', 'inhibition at 30 µM', '122%'),
  ('O=c1oc2c(c(O)c1C(c1ccc(CCO)s1)C1CC1)CCCCCC2 (stereo not drawn)', 'inhibition at 30 µM', '107%'),
  ('CC(C)C(c1cccc(NS(=O)(=O)c2ccc(C#N)cc2)c1)c1c(O)c2c(oc1=O)CCCCCC2 (stereo not drawn)', 'inhibition at 30 µM', '106%'),
  ('Cc1noc(C)c1S(=O)(=O)Nc1cccc(C(c2c(O)c3c(oc2=O)CCCCCC3)C2CC2)c1 (stereo not drawn)', 'inhibition at 30 µM', '100%');

**Query** Record lookup: for HIV-1 protease (Human immunodeficiency virus type 1 group M subtype B), what inhibition at 30 µM belongs to C[C@H](NC(=O)OC(C)(C)C)C(=O)Nc1cccc(C(c2c(O)c3c(oc2=O)CCCCCC3)C2CC2)c1 (stereo partly drawn) ?
**Result** 116%

**Query** Repeat with O=c1oc2c(c(O)c1C(c1cccc(NS(=O)(=O)c3ccc(Cl)s3)c1)C1CC1)CCCCCC2 (stereo not drawn)
**Result** 114%
